# credit: paper PMC11062899

Test: Peptide stability in simulated intestinal fluid (SIF)
Assay type: in vitro ADME, porcine
Details: simulated gi fluid; 8 h, 37 °C, pH 6.8; read-out: Proteolytic stability: SIF (8 h) % remaining
Criterion: remaining at 8 h strictly less than 70%. Met: True. Not met: False.

These recorded examples may help you get a feel for the data.
- Smiles notation: "O=C1CCSCc2cccc(n2)CSCCNC(=O)[C@H](CO)NC(=O)[C@@H](NC(=O)c2ccc(Cl)s2)CN1"
  Class label: "False"
- Smiles notation: "O=C1C[C@H]2CCCN2C(=O)[C@H](Cc2ccccc2)NC(=O)[C@@H](NC(=O)c2ccc(Cl)s2)CCCSC/C=C/CSCCN1"
  Class label: "True"
- Smiles notation: "O=C1CCSCc2ccc(cc2)CSCCNC(=O)[C@H](CNC(=O)c2ccc(Cl)s2)NC(=O)[C@H](Cc2ccccn2)N1"
  Class label: "False"
- Smiles notation: "O=C(N[C@H]1CSCc2cccc(n2)CSCCNC(=O)[C@H](Cc2ccccn2)NC(=O)C2(CCCC2)NC1=O)c1ccc(Cl)s1"
  Class label: "False"

Turning now to a further record.
Qu. For NC(=O)NCCC[C@@H]1NC(=O)[C@@H](NC(=O)c2ccc(Cl)s2)CNC(=O)CCSCc2cccc(n2)CSCCNC1=O , is the recorded remaining at 8 h below the cut-off of 70%?
Ans. False

* * *

// reported microsomal CLint for each item listed
Assay: Metabolic stability in rat liver microsomes (RLMs)
Conditions: rat, microsomes, CL (ul/min/mg protein) R1, RLM CL; replicate R1
Could you kindly put the unit after your number?

Example cases with answers are listed next.
- Compound: "CC(C)[C@@H]1NC(=O)[C@@H](NC(=O)c2ccc(Cl)s2)CNC(=O)CCSCc2cccc(n2)CSCCNC1=O [compound 19]"
  microsomal CLint: "13.1 µL/min/mg"
- Compound: "NC(=O)NCCC[C@@H]1NC(=O)[C@@H](NC(=O)c2ccc(Cl)s2)CNC(=O)CCSCc2cccc(n2)CSCCNC1=O [compound 20]"
  microsomal CLint: "29.5 µL/min/mg"
- Compound: "O=C1NCCSCc2cccc(n2)CSC[C@H](NC(=O)c2ccc(Cl)s2)C(=O)N[C@@H](CO)C(=O)NCc2ccc1cc2 [compound 25]"
  microsomal CLint: "99.1 µL/min/mg"

Qu. Find the recorded microsomal CLint belonging to O=C1CCSCc2cccc(n2)CSCCNC(=O)[C@H](CO)NC(=O)[C@@H](NC(=O)c2ccc(Cl)s2)CN1 [compound 17] and report it.
Ans. 149 µL/min/mg

* * *

Experiment: in vivo
Settings: male, Wistar Han, rat, iv, 1 mg/kg, Concentration in blood samples
Assay readout: level at time molar at 0.5 h (nM)
Only the number, expressed in nM, is required.

Qu. Recorded level at time molar at 0.5 h for O=C1C[C@H]2CCCN2C(=O)[C@H](Cc2ccccc2)NC(=O)[C@@H](NC(=O)c2ccc(Cl)cc2)CCC=CCCCCN1 (mixture of isomers) [peptide 46] , please?
Ans. 280

* * *

Assay: Metabolic stability in rat liver microsomes (RLMs)
Details: rat, microsomes, Metabolic stability: RLM CL R3, summary table, rounded; replicate R3
Assay readout: microsomal CLint (µL/min/mg)
Your answer should be a plain number; it is taken to be in µL/min/mg.

Qu. Could you tell me which microsomal CLint is on file for CN1CCC(=O)NCCSCCS(=O)(=O)CCSC[C@H](NC(=O)c2ccc(Cl)s2)C(=O)N[C@@H](Cc2ccccc2)C1=O ?
Ans. 141

Qu. What measured microsomal CLint goes with O=C1CC2CCN(CC2)C(=O)[C@H](Cc2ccccc2)NC(=O)[C@@H](NC(=O)c2ccc(Cl)s2)CSCCS(=O)(=O)CCSCCN1 ?
Ans. 148

Qu. Need microsomal CLint of O=C1C[C@H]2CCCN2C(=O)[C@H](Cc2ccccn2)NC(=O)[C@@H](NC(=O)c2ccc(Cl)s2)CSCCS(=O)(=O)CCSCCN1 , thanks.
Ans. 73

Qu. Looking for the measured microsomal CLint of O=C1C[C@H]2CCCN2C(=O)[C@H](Cc2ccccc2)NC(=O)[C@@H](NC(=O)c2ccc(Cl)s2)CSCCS(=O)(=O)CCSCCN1 [peptide 11] , can you help?
Ans. 83.9

* * *

Target: human α-thrombin (Homo sapiens)
Assay: Sub-library screen for active and permeable cyclic peptides (PAMPA plus thrombin inhibition)
Type: biochemical
Conditions: donor sample diluted to theoretical equilibrium (1 μM in assay); crude; slopes normalized to DMSO
Residual thrombin activity: Equilibrated sample values by entry
Quick one: just the number, no unit, thanks!

Solved entries:
- Molecule: "N#Cc1ccc(C[C@@H]2NC(=O)[C@@H](NC(=O)c3ccc(Cl)s3)CSCCS(=O)(=O)CCSCCNC(=O)C[C@H]3CCCN3C2=O)cc1 [C1-X35-L2]"
  Numeric value: 96.6
- Molecule: "Cc1cccc(C[C@@H]2NC(=O)[C@@H](NC(=O)c3ccc(Cl)s3)CCSCc3cccc(n3)CSCCNC(=O)C[C@H]3CCCN3C2=O)c1 [C2-X37-L1]"
  Numeric value: 83.3

Qu. Requested field: Residual thrombin activity: Equilibrated sample. Item: CN1C(=O)[C@@H](NC(=O)c2ccc(Cl)s2)CCCSC/C=C/CSCCNC(=O)C[C@H]2CCCN2C(=O)[C@@H]1Cc1ccccc1 [C3-X32-L4]
Ans. 100.1

* * *

Test: Metabolic stability in rat liver microsomes (RLMs)
Conditions: rat, microsomes, CL (ul/min/mg protein) R3, RLM CL; replicate R3
Strictly below 100 µL/min/mg in microsomal CLint: 1. Otherwise: -1.

Use the examples below as a reference point.
- Compound: "O=C1CCSCc2ccc(cc2)CSCCNC(=O)[C@H](CNC(=O)c2ccc(Cl)s2)NC(=O)[C@H](Cc2ccccn2)N1"
  Class label: 1
- Compound: "O=C(N[C@H]1CSCc2cccc(n2)CSCCNC(=O)[C@H](Cc2c[nH]cn2)NC(=O)C2(CCCC2)NC1=O)c1ccc(Cl)s1"
  Class label: 1
- Compound: "O=C1C[C@H]2CCCN2C(=O)[C@H](Cc2ccccc2)NC(=O)[C@@H](NC(=O)c2ccc(Cl)s2)CSCCS(=O)(=O)CCSCCN1 [peptide 11]"
  Class label: 1
- Compound: "O=C(N[C@H]1CSCCS(=O)(=O)CCSCCNC(=O)C2(CC2)CNC(=O)[C@H](Cc2ccccc2)NC1=O)c1ccc(Cl)s1"
  Class label: 1
- Compound: "O=C1CCSC/C=C/CSCCNC(=O)[C@H](CNC(=O)c2ccc(Cl)s2)NC(=O)[C@H](Cc2ccccn2)N1"
  Class label: -1
- Compound: "O=C1CC2CCN(CC2)C(=O)[C@H](Cc2ccccc2)NC(=O)[C@@H](NC(=O)c2ccc(Cl)s2)CSCCS(=O)(=O)CCSCCN1"
  Class label: -1

Qu. Criterion: microsomal CLint strictly below 100 µL/min/mg. Is it met by O=C1CCSCc2cccc(n2)CSCCNC(=O)[C@H](CO)NC(=O)[C@@H](NC(=O)c2ccc(Cl)s2)CN1 ?
Ans. -1

* * *

List of Residual thrombin activity: Top sample values.
Biological target: human α-thrombin (Homo sapiens)
Test: Sub-library screen for active and permeable cyclic peptides (PAMPA plus thrombin inhibition)
Assay type: biochemical
Details: PAMPA acceptor well after 14 h, 5 μM donor; crude; slopes normalized to DMSO
Lab note: write the figure by itself, no unit.

- Molecule: "CN1C(=O)[C@@H](NC(=O)c2ccc(Cl)s2)CCSCc2cccc(c2)CSCCNC(=O)C[C@H]2CCCN2C(=O)[C@@H]1Cc1ccccc1 [C2-X32-L5]"
  Numeric value: 104.7
- Molecule: "O=C1C[C@H]2CCCN2C(=O)[C@@H](Cc2ccccc2)NC(=O)[C@@H](NC(=O)c2ccc(Cl)s2)CCCSCc2ccccc2CSCCN1 [C3-X31-L6]"
  Numeric value: 97.6
- Molecule: "Cc1cccc(C[C@@H]2NC(=O)[C@@H](NC(=O)c3ccc(Cl)s3)CSCc3ccc(cc3)CSCCNC(=O)C[C@H]3CCCN3C2=O)c1 [C1-X37-L3]"
  Numeric value: 95.4
- Molecule: "CN1C(=O)[C@@H](NC(=O)c2ccc(Cl)s2)CCSCCS(=O)(=O)CCSCCNC(=O)C[C@H]2CCCN2C(=O)[C@@H]1Cc1ccccc1 [C2-X32-L2]"
  Numeric value: 93.7
- Molecule: "O=C1C[C@H]2CCCN2C(=O)[C@H](Cc2ccc(Cl)cc2)NC(=O)[C@@H](NC(=O)c2ccc(Cl)s2)CSCc2cccc(c2)CSCCN1 [C1-X34-L5]"
  Numeric value: 97.0

Kindly consider the entry below.
Qu. Item: Cc1cccc(C[C@@H]2NC(=O)[C@@H](NC(=O)c3ccc(Cl)s3)CCCSCc3cccc(c3)CSCCNC(=O)C[C@H]3CCCN3C2=O)c1 [C3-X37-L5] Test system: human α-thrombin (Homo sapiens) Read-out: Residual thrombin activity: Top sample Value: ?
Ans. 100.9

* * *

Assay: Metabolic stability in rat liver microsomes (RLMs)
Conditions: rat liver microsomes, 0 min, replicate R1
Catalogue of TIC value of compound, 0 min, R1 readings, one per entry.
Answer field: number only, no words.

Below, each entry is followed by its recorded TIC value of compound, 0 min, R1 result.
- Compound: "O=C1C[C@H]2CCCN2C(=O)[C@H](Cc2ccccc2)NC(=O)[C@@H](NC(=O)c2ccc(Cl)s2)CSC/C=C/CSCCN1 [peptide 32]"
  TIC value of compound, 0 min, R1: 4102350
- Compound: "O=C1C[C@H]2CCCN2C(=O)[C@H](Cc2ccccc2)NC(=O)[C@@H](NC(=O)c2ccc(Cl)s2)CCCSC/C=C/CSCCN1"
  TIC value of compound, 0 min, R1: 9960125
- Compound: "O=C1C[C@H]2CCCN2C(=O)[C@H](Cc2ccccc2)NC(=O)[C@@H](NC(=O)c2ccc(Cl)s2)CCCSCc2cccc(n2)CSCCN1"
  TIC value of compound, 0 min, R1: 23625921
- Compound: "O=C1C[C@H]2CCCN2C(=O)[C@H](Cc2ccccc2)NC(=O)[C@@H](NC(=O)c2ccc(Cl)s2)CCSCc2cccc(n2)CSCCN1"
  TIC value of compound, 0 min, R1: 21264470
- Compound: "O=C1CSCCC[C@H](NC(=O)c2ccc(Cl)s2)C(=O)N[C@@H](Cc2ccccc2)C(=O)N2CCC[C@@H]2CC(=O)NCCSC1"
  TIC value of compound, 0 min, R1: 9508843
- Compound: "O=C1C[C@H]2CCCN2C(=O)[C@H](Cc2ccccc2)NC(=O)[C@@H](NC(=O)c2ccc(Cl)s2)CCSC/C=C/CSCCN1"
  TIC value of compound, 0 min, R1: 12429096

Now let's try a different one.
Qu. I am curious: what TIC value of compound, 0 min, R1 value has been reported for O=C1C[C@H]2CCCN2C(=O)[C@H](Cc2ccccc2)NC(=O)[C@@H](NC(=O)c2ccc(Cl)s2)CSCc2cccc(n2)CSCCN1 ?
Ans. 21675652
